- Tested on: hTel23 (DNA, G4) TAGGGTTAGGGTTAGGGTTAGGG
- experiment.description: CD melting
- settings: 80 mM KCl, 10 mM KH2PO4 (90 mM K+); pH 7.3; 5 equiv. complex (25 µM), 5 µM DNA, 0.5 °C/min
measurement.label: ΔTM (°C)
Respond numerically; units are °C and should not be typed.

CCN1[C]N(CC)C(c2ccc(OC)cc2)=C1c1ccc(OC)cc1.CCN1[C]N(CC)C(c2ccc(OC)cc2)=C1c1ccc(OC)cc1.[Au+] −2
CC(=O)NCCN1[C]N2C=CC=CC2=C1.CC(=O)NCCN1[C]N2C=CC=CC2=C1.[Au+] −13

Alright, here's another compound for you.
Prompt: Return the recorded ΔTM value; entry: "[Au+].[C]1C2=C(CCCC2)N2CCCCN12.[C]1C2=C(CCCC2)N2CCCCN12"
Response: −4
